assay: chemical genetic growth profiling, strain panel (AID 1159580);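 also: tested at 20 µM; growth read once vehicle control cultures reached saturation at 30 °C; 1 = growth at the plate median or of vehicle wells; lower values mean less growth of the strain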; details: S. cerevisiae deletion strains, growth OD, locus YER155C, strain BEM2 (second series), hits give low values
The campaign covered roughly 5,500 compounds. About 2,000 (36%) were called active. About 18% were inconclusive and are not listed. Some of the results follow.
Please note: normalized growth exactly at 1 is false (0). Only values below 1 get true (1).

compound	class-name
N=c1ccn2c(n1)O[C@@H]1C2O[C@H](CO)[C@H]1O (some centres not stated)	true (1)
CC1=C(CC(=O)O)c2cc(F)ccc2/C1=C\c1ccc(S(C)=O)cc1 (configuration not stated)	false (0)

**Q:** Is the reported normalized growth for "O=C(O)c1cc2ccccc2c(Cc2c(O)c(C(=O)O)cc3ccccc23)c1O" strictly below 1?
**A:** true (1)

**Q:** Is the reported normalized growth for "CCC(=O)O[C@H]1[C@H](O[C@@H]2[C@@H](C)[C@H](O[C@H]3C[C@@](C)(OC)[C@@H](O)[C@H](C)O3)[C@@H](C)C(=O)O[C@H](CC)[C@@](C)(O)[C@H](O)[C@@H](C)C(=O)[C@H](C)C[C@@]2(C)O)O[C@H](C)C[C@@H]1N(C)C" strictly below 1?
**A:** true (1)

**Q:** Is the reported normalized growth for "S=c1nc[nH]c2nc[nH]c12" strictly below 1?
**A:** true (1)
